- Tested on: Rattus norvegicus
- assayName: Maximum increase in dP/dt when administered intravenously in rats at 1 mg/kg dose.
- Type: functional
- Design: unit not given here
- protocolConditions: route intravenous
Max values for the compounds below.
Answer using only a numeral; do not append any unit.

These recorded examples may help you get a feel for the data.
Hello, please tell me recorded Max for this one: CCCc1nc2cc3c(cc2[nH]1)C(C)(C)C(=O)N3
2.5

In one line, give reported Max of the entry CC1(C)C(=O)Nc2cc3[nH]c(O)nc3cc21 .
3

Identify Max associated with the compound CC1(C)C(=O)Nc2cc3[nH]c(-c4cnsn4)nc3cc21
3.5

***
Report measured Max; entry is Cn1c(O)nc2cc3[nH]c(-c4ccnnc4)nc3cc21
2.7

====

- Species: Rattus norvegicus
- assayName: Effective dose required to produce an increase in dP/dt5 by 1500 mmHg/s in rats
- Assay type: functional
Parameter threshold = 0.1 mg/kg. Response is MET when ED1.5 meets or exceeds it, else NOT MET.

Kindly determine if ED1.5 recorded for CC(C)c1nc2cc3c(cc2[nH]1)C(C)(C)C(=O)N3 is above or exactly 0.1 mg/kg.
MET

Check the entry Cn1c(O)nc2cc3[nH]c(-c4ccncc4)nc3cc21 : does ED1.5 equal or exceed 0.1 mg/kg?
MET

Identify whether the reported ED1.5 of the following compound is 0.1 mg/kg or greater: CC1(C)C(=O)Nc2cc3[nH]c(-c4ccc(O)nn4)nc3cc21
NOT MET

Identify whether the reported ED1.5 of the following compound is 0.1 mg/kg or greater: CC1(C)C(=O)Nc2cc3[nH]c(-c4c[nH]cn4)nc3cc21
MET

hey, is ED1.5 for this one >= 0.1 mg/kg? CC1(C)C(=O)Nc2cc3[nH]c(-c4cnsn4)nc3cc21
NOT MET

Does ED1.5 meet or surpass 0.1 mg/kg for CC1(C)C(=O)Nc2cc3[nH]c(-c4ccnc5ccccc45)nc3cc21 ?
MET

====

Examples of compounds with documented ED1.5 follow.
- Organism: Felis catus
- assayName: Effective dose required to produce an increase in dP/dt5 by 1500 mmHg/s in cats
- Assay type: functional
Kindly answer with a numeric value in mg/kg, unit omitted.

The cases that follow already have their ED1.5 on record.
Consider the compound CC1(C)C(=O)Nc2cc3[nH]c(-c4ccc(-n5ccnc5)cc4)nc3cc21 . State its measured ED1.5.
0.25

Give a short answer stating reported ED1.5 for CC1(C)C(=O)Nc2cc3[nH]c(-c4nc[nH]n4)nc3cc21 .
0.02

Continuing:
Find the measured ED1.5 of CCn1c(O)nc2cc3[nH]c(-c4ccncc4)nc3cc21 and report it.
0.007

====

- Species on record: Felis catus
- assayName: Effective dose required to produce an increase in dP/dt5 by 1500 mmHg/s in cats
- Assay type: functional
# ED1.5 values compiled below
Write the value in mg/kg as a bare number.

Some solved entries appear below for comparison.
Give the measured ED1.5 for Oc1nc2cc3nc(-c4ccncc4)[nH]c3cc2o1
0.06

Query ED1.5 for Cn1c(O)nc2cc3c(cc21)C(C)(C)C(=O)N3
0.02

More entries:
# return recorded ED1.5 for entry CC1(C)C(=O)Nc2cc3[nH]c(-c4ccnnc4)cc3cc21
0.01

Name the recorded ED1.5 of the item CC1(C)C(=O)Nc2cc3[nH]cnc3cc21 in your answer.
0.13

Give the measured ED1.5 for CC1(C)C(=O)Nc2cc3[nH]c(-c4cnccn4)nc3cc21
0.04

Could you please provide reported ED1.5 for CC1(C)C(=O)Nc2cc3[nH]c(S)nc3cc21 ? Thanks!
0.06

Report ED1.5 for CC1(C)C(=O)Nc2cc3[nH]c(O)nc3cc21
0.08

Answer with the recorded ED1.5 of Cn1c(O)nc2cc3[nH]c(-c4ccncc4)nc3cc21 only.
0.01

Dear colleague, please send me the reported ED1.5 for CC1(C)C(=O)Nc2cc3[nH]c(-c4cnsn4)nc3cc21 when you can.
0.004

Identify measured ED1.5 associated with CC1(C)C(=O)Nc2cc3[nH]c(-c4ccncc4)cc3cc21
0.11

State its ED1.5: CC1(C)C(=O)Nc2cc3[nH]c(-c4ccc[nH]4)nc3cc21
0.07

====

- Organism: Rattus norvegicus
- assayName: Effective dose required to produce an increase in dP/dt5 by 1500 mmHg/s in rats
- Type: functional
# key: entry, value: ED1.5
Please respond with the number in mg/kg and leave the unit unwritten.

Fill in reported ED1.5 for this entry: CC1(C)C(=O)Nc2cc3[nH]c(C(F)(F)F)nc3cc21
0.13

Give ED1.5 for the following compound: CCn1c(O)nc2cc3[nH]c(-c4ccncc4)nc3cc21
0.05

Continuing:
Return ED1.5 (reported value) for this compound: CCn1c(O)nc2cc3[nH]c(-c4ccnnc4)nc3cc21
0.04

For the compound CC1(C)C(=O)Nc2cc3[nH]c(-c4cccs4)nc3cc21 , report ED1.5.
0.12

Could you please provide reported ED1.5 for CC1(C)C(=O)Nc2cc3[nH]c(-c4ccc(-n5ccnc5)cc4)nc3cc21 ? Thanks!
1

Return reported ED1.5. Input compound: CC1(C)C(=O)Nc2cc3[nH]c(-c4nc[nH]n4)nc3cc21
0.1

Give recorded ED1.5. CC1(C)C(=O)Nc2cc3[nH]c(-c4ccnnc4)nc3cc21
0.04

Provide one value: measured ED1.5 of Oc1nc2cc3[nH]c(-c4ccncc4)nc3cc2s1
0.2

Recall and state the measured ED1.5 for Cn1c(O)nc2cc3[nH]c(-c4ccnnc4)nc3cc21 .
0.19

Consider the compound CC1(C)C(=O)Nc2cc3[nH]c(-c4cnccn4)nc3cc21 . State its measured ED1.5.
0.1

Give a short answer stating reported ED1.5 for Cn1c(O)nc2cc3c(cc21)C(C)(C)C(=O)N3 .
0.03

Return ED1.5 for the following compound: COc1cc(S(C)(=O)=O)ccc1-c1nc2cc3c(cc2[nH]1)C(C)(C)C(=O)N3
2

Look up ED1.5 of CCCn1c(O)nc2cc3[nH]c(-c4ccncc4)nc3cc21 and report it.
1

Input CC1(C)C(=O)Nc2cc3[nH]cnc3cc21 , output reported ED1.5.
0.19

Provide ED1.5 value for the following compound: Cc1nc2cc3c(cc2[nH]1)C(C)(C)C(=O)N3
0.48

Identify measured ED1.5 corresponding to CC1(C)C(=O)Nc2cc3[nH]c(-c4ccncc4)cc3cc21
0.16

Retrieve ED1.5 measured for CC1(C)C(=O)Nc2cc3[nH]c(O)nc3cc21 and print it.
0.13

Please report ED1.5 for the following compound: CC1(C)C(=O)Nc2cc3[nH]c(-c4ccc[nH]4)nc3cc21
0.45

====

- System: Rattus norvegicus
- assayName: Maximum increase in dP/dt when administered intravenously in rats at 10 mg/kg dose.
- Type: functional
- Set-up: unit not given here
- protocolConditions: route intravenous
measuredQuantity: Max
Answer with a bare number; do not write a unit.

# example entries with known answers
Return reported Max for target or system Rattus norvegicus, item CC1(C)C(=O)Nc2cc3[nH]c(-c4ccc(-n5ccnc5)cc4)nc3cc21 .
2.8

Using Rattus norvegicus as the test system, report measured Max of CC1(C)C(=O)Nc2cc3[nH]c(-c4ccccc4)nc3cc21 .
4.2

Give Rattus norvegicus Max for the following compound: Oc1nc2cc3nc(-c4ccncc4)[nH]c3cc2o1
4.1

Enter measured Max, system Rattus norvegicus, for the compound shown: CC1(C)C(=O)Nc2cc3[nH]c(-c4cnccn4)nc3cc21
2.6

Provide Max, tested on Rattus norvegicus, for Cn1c(O)nc2cc3[nH]c(-c4ccncc4)nc3cc21 .
2.6

State Max (Rattus norvegicus) of Cc1nc2cc3c(cc2[nH]1)C(C)(C)C(=O)N3 .
3.5

Further cases:
Name the value of Max reported for CC1(C)C(=O)Nc2cc3[nH]c(-c4ccc[nH]4)nc3cc21 when tested on Rattus norvegicus.
2.6

====

- Organism: Felis catus
- assayName: Effective dose required to produce an increase in dP/dt5 by 1500 mmHg/s in cats
- Assay type: functional
measuredQuantity: ED1.5 (mg/kg)
Give the number; mg/kg is assumed, so skip it.

Sample answers from the record:
Indicate its recorded ED1.5; the compound in question is CC1(C)C(=O)Nc2cc3[nH]c(-c4cccs4)nc3cc21
0.07

Tell us which ED1.5 value is on record for CC1(C)C(=O)Nc2cc3[nH]c(-c4cncnc4)nc3cc21
0.02

Tell me its ED1.5 given CC1(C)C(=O)Nc2cc3[nH]c(-c4ccco4)nc3cc21 as the entry.
0.06

Continuing:
Identify the reported ED1.5 for the following entry. CC1(C)C(=O)Nc2cc3[nH]c(-c4ccncc4)nc3cc21
0.01

Please give measured ED1.5 of the following entry: CC1(C)C(=O)Nc2cc3[nH]c(-c4ccccc4)nc3cc21
0.15

Answer with the recorded ED1.5 of CC1(C)C(=O)Nc2cc3[nH]c(C(F)(F)F)nc3cc21 only.
0.08

Answer with the recorded ED1.5 of COc1ccc(-c2nc3cc(C4=NNC(=O)CC4C)ccc3[nH]2)cc1 (stereo not drawn) only.
0.6

State its ED1.5 for this compound: CCCc1nc2cc3c(cc2[nH]1)C(C)(C)C(=O)N3
0.12

Give ED1.5 for the following compound: CC(C)c1nc2cc3c(cc2[nH]1)C(C)(C)C(=O)N3
0.09

Give ED1.5 for CCn1c(O)nc2cc3[nH]c(-c4ccnnc4)nc3cc21
0.02

Return value of ED1.5 for input CC1(C)C(=O)Nc2cc3[nH]c(-c4ccnnc4)nc3cc21 , no commentary.
0.01

Using known records, supply ED1.5 for Cc1nc2cc3c(cc2[nH]1)C(C)(C)C(=O)N3
0.17
